Tgt: eeAChE (AChE from Electrophorus electricus) (Electrophorus electricus, UniProt O42275)
Construct: purchased Sigma-Aldrich
Sequence (O42275 24-633): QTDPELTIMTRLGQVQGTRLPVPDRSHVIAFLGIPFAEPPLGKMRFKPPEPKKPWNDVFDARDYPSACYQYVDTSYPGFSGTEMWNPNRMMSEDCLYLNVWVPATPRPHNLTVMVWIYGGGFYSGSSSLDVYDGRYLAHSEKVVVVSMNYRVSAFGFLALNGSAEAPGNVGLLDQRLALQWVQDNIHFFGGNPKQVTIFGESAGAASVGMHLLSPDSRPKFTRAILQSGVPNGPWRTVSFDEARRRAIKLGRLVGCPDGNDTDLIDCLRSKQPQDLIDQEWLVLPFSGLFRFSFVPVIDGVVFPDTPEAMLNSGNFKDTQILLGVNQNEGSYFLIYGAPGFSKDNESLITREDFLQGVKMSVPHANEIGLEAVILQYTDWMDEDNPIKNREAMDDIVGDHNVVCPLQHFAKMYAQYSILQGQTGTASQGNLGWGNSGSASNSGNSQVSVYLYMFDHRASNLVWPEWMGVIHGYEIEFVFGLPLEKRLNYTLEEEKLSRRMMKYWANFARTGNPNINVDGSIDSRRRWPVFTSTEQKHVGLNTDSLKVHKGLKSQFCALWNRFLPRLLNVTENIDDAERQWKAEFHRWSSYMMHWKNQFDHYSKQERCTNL
Protocol Description: biochemical
Condition Summary: at 10 μM inhibitor concentration; mean ± SD; read-out: eeAChE % Inh.
Reported Endpoint: inhibition at 10 µM

Worked set:
# Molecule, Observed Value
data = [
    ("O=C1c2ccccc2C(=O)N1CC(O)CNCc1cccc(Cl)c1 (stereo not drawn)", "< 10%"),
    ("COc1ccccc1CNCC(O)CN1C(=O)c2ccccc2C1=O (stereo not drawn)", "< 10%"),
    ("COc1ccc(CNCC(O)CN2C(=O)c3ccccc3C2=O)cc1 (stereo not drawn)", "< 10%"),
    ("COc1ccccc1CNCC(O)CCN1C(=O)c2ccccc2C1=O (stereo not drawn)", "32.7%"),
    ("O=C1c2ccccc2C(=O)N1CCC(O)CNCc1ccccc1 (stereo not drawn)", "< 10%"),
]

Alright, here's another molecule for you.
INPUT: Form: Entry = Cc1ccc(CNCC(O)CN2C(=O)c3ccccc3C2=O)cc1 (stereo not drawn) | System = eeAChE (AChE from Electrophorus electricus) (Electrophorus electricus, UniProt O42275) | inhibition at 10 µM = ____
OUTPUT: < 10%

====

Tgt: eeAChE (AChE from Electrophorus electricus) (Electrophorus electricus, UniProt O42275)
Construct: purchased Sigma-Aldrich
Protocol Description: biochemical
Condition Summary: at 10 μM inhibitor concentration; mean ± SD; read-out: eeAChE % Inh.
A collection of compounds and their measured inhibition at 10 µM
Quick note: give the figure in %, leave out the unit.

Worked set:
# Compound, Tgt, inhibition at 10 µM (%)
rows = [
    ("O=C1c2ccccc2C(=O)N1CC(O)CNCc1ccccc1 (centres unmarked)", "eeAChE (AChE from Electrophorus electricus) (Electrophorus electricus, UniProt O42275)", 11.5),
    ("O=C1c2ccccc2C(=O)N1CC(O)CNCc1ccccc1C(F)(F)F (centres unmarked)", "eeAChE (AChE from Electrophorus electricus) (Electrophorus electricus, UniProt O42275)", 11.8),
]

INPUT: Form: Entry = O=C1c2ccccc2C(=O)N1CC(O)CNCc1ccccc1F (centres unmarked) | System = eeAChE (AChE from Electrophorus electricus) (Electrophorus electricus, UniProt O42275) | inhibition at 10 µM = ____
OUTPUT: 28.1

====

A collection of molecules and their measured inhibition at 10 µM
Tgt: Aβ1–42 peptide aggregation (Homo sapiens, UniProt P05067)
Construct: Recombinant human HFIP-pretreated Aβ1–42 peptide; purchased Merck Millipore, Darmstadt, Germany
Sequence (P05067 672-713 limits assumed): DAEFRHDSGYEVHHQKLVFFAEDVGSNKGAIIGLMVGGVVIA
Protocol Description: Thioflavin T-based fluorometric assay of Aβ aggregation
Assay type: biochemical
Condition Summary: at 10 μM inhibitor concentration; 1.5 μM Aβ1–42; mean ± SD; read-out: Aβ-Aggr. % Inh.

Worked set:
# Molecule, inhibition at 10 µM
records = [
    ("O=C1c2ccccc2C(=O)N1CC(O)CNCc1ccc(Cl)cc1Cl (stereo not shown)", "< 10%"),
    ("COc1ccccc1CNCC(O)CCN1C(=O)c2ccccc2C1=O (stereo not shown)", "< 10%"),
    ("Cc1ccc(CNCC(O)CN2C(=O)c3ccccc3C2=O)cc1 (stereo not shown)", "< 10%"),
    ("O=C1c2ccccc2C(=O)N1CCCC(O)CNCc1ccccc1 (stereo not shown)", "24.9%"),
    ("Oc1ccc(/C=C/c2cc(O)cc(O)c2)cc1 [Resveratrol, reference compound]", "78.5%"),
]

INPUT: Quick check: inhibition at 10 µM of O=C1c2ccccc2C(=O)N1CC(O)CNCc1ccccc1F (stereo not shown) ?
OUTPUT: 21.1%

INPUT: Same again, this time with O=C1c2ccccc2C(=O)N1CCCCC(O)CNCc1ccccc1 (stereo not shown)
OUTPUT: < 10%

INPUT: Same again, this time with O=C1c2ccccc2C(=O)N1CCC(O)CNCc1ccccc1 (stereo not shown)
OUTPUT: < 10%

INPUT: Same again, this time with O=C1c2ccccc2C(=O)N1CC(O)CNCc1ccccc1 (stereo not shown)
OUTPUT: < 10%

INPUT: Same again, this time with COc1ccc(CNCC(O)CCN2C(=O)c3ccccc3C2=O)cc1 (stereo not shown)
OUTPUT: < 10%

====

Tgt: eqBuChE (BuChE from equine serum) (Equus caballus)
Protocol Description: biochemical
Condition Summary: at 10 μM inhibitor concentration; mean ± SD; read-out: eqBuChE % Inh.
Reported Endpoint: inhibition at 10 µM (%)
Quick note: give the figure in %, leave out the unit.

Worked set:
# Molecule, Observed Value
measured = [
    ("Cc1ccc(CNCC(O)CN2C(=O)c3ccccc3C2=O)cc1 (stereo not shown)", 11.6),
    ("O=C1c2ccccc2C(=O)N1CCCCC(O)CNCc1ccccc1 (stereo not shown)", 36),
]

Alright, here's another molecule for you.
INPUT: Quick check: inhibition at 10 µM of COc1ccccc1CNCC(O)CCN1C(=O)c2ccccc2C1=O (stereo not shown) ?
OUTPUT: 17.8

====

A collection of compounds and their measured inhibition at 10 µM
Tgt: eqBuChE (BuChE from equine serum) (Equus caballus, UniProt P81908)
Sequence (P81908 whole entry): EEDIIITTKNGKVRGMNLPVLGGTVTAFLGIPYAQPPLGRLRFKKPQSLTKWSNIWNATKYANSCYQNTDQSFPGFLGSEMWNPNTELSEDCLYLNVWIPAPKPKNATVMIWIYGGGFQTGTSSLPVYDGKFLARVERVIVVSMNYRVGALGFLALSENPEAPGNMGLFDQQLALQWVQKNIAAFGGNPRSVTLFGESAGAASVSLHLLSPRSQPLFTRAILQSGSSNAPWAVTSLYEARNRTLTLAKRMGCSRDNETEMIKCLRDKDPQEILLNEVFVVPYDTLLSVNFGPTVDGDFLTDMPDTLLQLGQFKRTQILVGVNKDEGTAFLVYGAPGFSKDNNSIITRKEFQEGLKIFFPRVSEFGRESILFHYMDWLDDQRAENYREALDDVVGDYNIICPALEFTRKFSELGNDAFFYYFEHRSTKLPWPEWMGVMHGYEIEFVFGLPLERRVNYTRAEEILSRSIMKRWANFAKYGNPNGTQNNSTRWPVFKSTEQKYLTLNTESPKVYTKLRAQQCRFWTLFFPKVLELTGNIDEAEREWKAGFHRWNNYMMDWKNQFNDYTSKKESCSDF
Protocol Description: biochemical
Condition Summary: at 10 μM inhibitor concentration; mean ± SD; read-out: eqBuChE % Inh.
Quick note: give the figure in %, leave out the unit.

# Compound, inhibition at 10 µM (%)
records = [
    ("COc1ccc(CNCC(O)CN2C(=O)c3ccccc3C2=O)cc1 (stereo not shown)", 19.1),
    ("COc1ccccc1CNCC(O)CCCCN1C(=O)c2ccccc2C1=O (stereo not shown)", 36),
    ("O=C1c2ccccc2C(=O)N1CCCC(O)CNCc1ccccc1 (stereo not shown)", 14.1),
]

INPUT: Quick check: inhibition at 10 µM of O=C1c2ccccc2C(=O)N1CC(O)CNCc1ccccc1 (stereo not shown) ?
OUTPUT: 14.1

====

Tgt: human recombinant BACE-1 (hBACE-1) (Homo sapiens)
Construct: purchased PanVera BACE-1 FRET Assay Kit, bought from Life Technologies Polska Sp. z o.o; host or cells: baculovirus expression
Sequence (P56817 46-501): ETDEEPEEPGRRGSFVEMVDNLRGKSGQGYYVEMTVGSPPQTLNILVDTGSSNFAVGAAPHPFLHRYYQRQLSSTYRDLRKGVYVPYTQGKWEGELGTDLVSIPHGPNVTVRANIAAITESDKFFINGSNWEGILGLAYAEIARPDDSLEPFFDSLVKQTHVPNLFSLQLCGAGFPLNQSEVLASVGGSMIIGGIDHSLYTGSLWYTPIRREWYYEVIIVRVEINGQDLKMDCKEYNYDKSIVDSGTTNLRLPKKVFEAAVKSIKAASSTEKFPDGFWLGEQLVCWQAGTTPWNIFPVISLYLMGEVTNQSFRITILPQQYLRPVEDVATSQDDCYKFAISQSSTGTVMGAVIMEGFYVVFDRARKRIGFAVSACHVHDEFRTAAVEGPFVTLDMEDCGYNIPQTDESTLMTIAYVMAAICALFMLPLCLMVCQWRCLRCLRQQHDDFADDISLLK
Protocol Description: BACE-1 FRET assay (PanVera kit)
Type: biochemical
Condition Summary: at 50 μM inhibitor concentration; mean ± SD; read-out: hBACE-1 % Inh.
Mark y for reported inhibition at 50 µM of 40% or greater; mark n for anything smaller.

// below: answered compounds
# Compound, Tgt, Answer Label
rows = [
    ("COc1ccccc1CNCC(O)CCCCN1C(=O)c2ccccc2C1=O (stereo not drawn)", "human recombinant BACE-1 (hBACE-1) (Homo sapiens)", "n"),
    ("O=C1c2ccccc2C(=O)N1CC(O)CNCc1cccc(Cl)c1 (stereo not drawn)", "human recombinant BACE-1 (hBACE-1) (Homo sapiens)", "n"),
    ("COc1ccccc1CNCC(O)CCN1C(=O)c2ccccc2C1=O (stereo not drawn)", "human recombinant BACE-1 (hBACE-1) (Homo sapiens)", "n"),
    ("O=C1c2ccccc2C(=O)N1CCCC(O)CNCc1ccccc1 (stereo not drawn)", "human recombinant BACE-1 (hBACE-1) (Homo sapiens)", "y"),
    ("O=C1c2ccccc2C(=O)N1CCCCC(O)CNCc1ccccc1 (stereo not drawn)", "human recombinant BACE-1 (hBACE-1) (Homo sapiens)", "y"),
]

INPUT: Is reported inhibition at 50 µM greater than or equal to 40% here: Cc1ccc(CNCC(O)CN2C(=O)c3ccccc3C2=O)cc1 (stereo not drawn)
OUTPUT: y

INPUT: Same again, this time with COc1ccccc1CNCC(O)CCCN1C(=O)c2ccccc2C1=O (stereo not drawn)
OUTPUT: n

INPUT: Same again, this time with COc1ccc(CNCC(O)CN2C(=O)c3ccccc3C2=O)cc1 (stereo not drawn)
OUTPUT: n

INPUT: Same again, this time with O=C1c2ccccc2C(=O)N1CC(O)CNCc1ccccc1 (stereo not drawn)
OUTPUT: n

INPUT: Same again, this time with O=C1c2ccccc2C(=O)N1CC(O)CNCc1ccccc1C(F)(F)F (stereo not drawn)
OUTPUT: y

INPUT: Same again, this time with O=C1c2ccccc2C(=O)N1CCC(O)CNCc1ccccc1 (stereo not drawn)
OUTPUT: n

INPUT: Same again, this time with COc1ccc(CNCC(O)CCN2C(=O)c3ccccc3C2=O)cc1 (stereo not drawn)
OUTPUT: n

INPUT: Same again, this time with O=C1c2ccccc2C(=O)N1CC(O)CNCc1ccc(Cl)cc1Cl (stereo not drawn)
OUTPUT: n

====

Below are molecules with their IC50 as measured on eeAChE (AChE from Electrophorus electricus) (Electrophorus electricus, UniProt O42275).
Quick note: give the figure in µM, leave out the unit.

Worked set:
# Molecule, Tgt, IC50 / µM
records = [
    ("COc1ccccc1CNCC(O)CCCN1C(=O)c2ccccc2C1=O (stereo not shown)", "eeAChE (AChE from Electrophorus electricus) (Electrophorus electricus, UniProt O42275)", 11.1),
    ("COc1ccccc1CNCC(O)CCCCN1C(=O)c2ccccc2C1=O (stereo not shown)", "eeAChE (AChE from Electrophorus electricus) (Electrophorus electricus, UniProt O42275)", 1.95),
    ("O=C1c2ccccc2C(=O)N1CCCC(O)CNCc1ccccc1 (stereo not shown)", "eeAChE (AChE from Electrophorus electricus) (Electrophorus electricus, UniProt O42275)", 3.32),
]

INPUT: Quick check: IC50 of O=C1c2ccccc2C(=O)N1CCCCC(O)CNCc1ccccc1 (stereo not shown) ?
OUTPUT: 2.13

Origin of the recorded values: paper PMC6017481
